Give measured PBM binding z-score for each item. Keep answers brief.
test system: PPARg:RXRa 90nM:30nM, anti-RXR (NR concentration 90 nM, RXRa partner concentration 30 nM); test: PBM binding z-score (relative to random genomic background probes); higher = stronger binding; sequences stand for … in GC…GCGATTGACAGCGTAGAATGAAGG
Reply: number alone, nothing else.

Query block: Sample `GCTATTAGTTGAAAGGACAACCGAATGATTCTCG` — what was its PBM binding z-score?
Result block: 0.958

Query block: Fill blank: measured PBM binding z-score of the sequence `TGGAGTAGGTTAGTCGGGGCATTCAGCCAACATA` is ____.
Result block: 1.22

Query block: Name the reported PBM binding z-score value associated with the sequence `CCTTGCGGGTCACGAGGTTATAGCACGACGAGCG`
Result block: 5.86

Query block: Please give the measured PBM binding z-score for this sequence: `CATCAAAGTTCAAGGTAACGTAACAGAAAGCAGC`
Result block: 2.82

Query block: Recorded PBM binding z-score for `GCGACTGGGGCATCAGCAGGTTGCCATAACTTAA` , please?
Result block: -0.301

Query block: Record request: PBM binding z-score value, item `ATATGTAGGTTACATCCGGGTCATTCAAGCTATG`
Result block: 4.53

Query block: Returns the measured PBM binding z-score for the input sequence. Input: `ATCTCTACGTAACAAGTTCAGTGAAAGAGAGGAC`
Result block: 0.321

Query block: Which PBM binding z-score is listed for `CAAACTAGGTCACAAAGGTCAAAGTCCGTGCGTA` ?
Result block: 8.55

Query block: Find the recorded PBM binding z-score belonging to `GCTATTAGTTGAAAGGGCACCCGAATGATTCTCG` and report it.
Result block: 3.99

Query block: I have this sequence here, `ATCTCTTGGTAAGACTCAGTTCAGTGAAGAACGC` , and I need its recorded PBM binding z-score.
Result block: 0.216

Query block: # PBM binding z-score lookup, item `ATCTCTAGGTAAGACTCAGTTCAATGAAGAACGC`
Result block: 0.504

Query block: Report PBM binding z-score for `GCTGCCAGGTCAGGTTGGTCAGCTAACGGGTACG` please.
Result block: 0.147
